Data origin, for the record: patent US7029865

# MEASURED_TARGET: hMC-5R (human), P33032
# Sequence (P33032 whole entry): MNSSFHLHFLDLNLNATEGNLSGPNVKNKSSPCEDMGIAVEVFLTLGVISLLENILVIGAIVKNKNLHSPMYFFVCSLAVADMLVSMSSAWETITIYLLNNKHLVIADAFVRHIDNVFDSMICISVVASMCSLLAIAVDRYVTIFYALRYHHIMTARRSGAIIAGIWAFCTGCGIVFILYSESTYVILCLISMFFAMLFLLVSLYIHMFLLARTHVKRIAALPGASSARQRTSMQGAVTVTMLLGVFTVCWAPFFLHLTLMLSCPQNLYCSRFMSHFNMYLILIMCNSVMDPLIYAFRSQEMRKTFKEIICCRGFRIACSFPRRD
# ASSAY_INFO: competition
# CONDITION_DESCRIPTION: modification not given
PROPERTY: IC50 (nM)
The reply should contain only the number, in nM.

I would be grateful if you could share the reported IC50 for SYSMEHFRWGKPVGKKRRPVKVYPNGAEDESAEAFPLEF [ACTH1-39, P01189] .
0.4
